# MEASUREMENT_NOTES: chemical genetic growth profiling, strain panel (AID 1159580);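 also: tested at 20 µM; growth read once vehicle control cultures reached saturation at 30 °C; 1 = growth at the plate median or of vehicle wells; lower values mean less growth of the strain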
# CONDITIONS_USED: S. cerevisiae deletion strains, growth OD, locus YJL134W, strain LCB3, stronger effect = lower value
The campaign covered roughly 5,500 compounds. About 2,000 (36%) were called active. Not shown: some 18% with an inconclusive outcome. The list shows a part of the results.
VALUE_KIND: normalized growth
Returns: the value as a bare number; no unit string appended.

[ask] Answer with the recorded normalized growth for the compound listed here: COc1cc2c3cc1Oc1cc(ccc1O)OC1c4c(cc(OC)c(O)c4Oc4ccc(cc4)CC3N(C)CC2)CCN1C (stereo not given)
[reply] 0.99

[ask] Answer with the recorded normalized growth for the compound listed here: CC12CCC3C(CC=C4CC(O)CCC43C)C1CCC2=O (stereo not given)
[reply] 1.03

[ask] Answer with the recorded normalized growth for the compound listed here: CC[C@]12CCCN3CCc4c(n(c5ccccc45)[C@](O)(C(=O)OC)C1)[C@@H]32
[reply] 0.99

[ask] Answer with the recorded normalized growth for the compound listed here: CCC(CCC(C)C1CCC2C3CC=C4C[C@@H](OC(C)=O)CC[C@]4(C)C3CC[C@]12C)C(C)C (stereo not given in full)
[reply] 0.991

[ask] Answer with the recorded normalized growth for the compound listed here: CC(=O)O[C@H]1CC[C@@]2(C)C(=CCC3C2CC[C@]2(C)C(=O)CCC32)C1 (stereo not given in full)
[reply] 1.02

====

Consider the following compounds; for each one, report its normalized growth.
# MEASUREMENT_NOTES: chemical genetic growth profiling, strain panel (AID 1159580);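 also: tested at 20 µM; growth read once vehicle control cultures reached saturation at 30 °C; 1 = growth at the plate median or of vehicle wells; lower values mean less growth of the strain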
# CONDITIONS_USED: S. cerevisiae deletion strains, growth OD, locus YLR102C, strain apc9, stronger effect = lower value
In all, about 5,500 compounds went through this assay and about 2,000 (36%) were called active. Roughly 18% stayed inconclusive and do not appear here. The list shows a part of the results.

[ask] Answer with the recorded normalized growth for the compound listed here: CC[C@]12CCCN3CCc4c(n(c5ccccc45)C(=O)C1)[C@@H]32
[reply] 0.985 (inactive)

[ask] Answer with the recorded normalized growth for the compound listed here: NC(=O)c1cnccn1
[reply] 0.999 (inactive)

[ask] Answer with the recorded normalized growth for the compound listed here: CCOc1ccc2c(c1)C(C)=CC(C)(C)N2
[reply] 0.992 (inactive)

[ask] Answer with the recorded normalized growth for the compound listed here: CC(=O)Oc1cc(C)c2c(c1C(OC(C)=O)OC(C)=O)Oc1c(c(C)c(OC(C)=O)c3c1C(OC(C)=O)OC3=O)OC2=O (stereo not drawn)
[reply] 0.974 (inactive)

[ask] Answer with the recorded normalized growth for the compound listed here: CCOC(=O)C1=C[C@]2(CC)CCCN3CCc4c(n1c1ccccc41)[C@@H]32
[reply] 0.969 (inactive)

[ask] Answer with the recorded normalized growth for the compound listed here: CC[C@@H](C(=O)[C@@H](C)[C@@H](O)[C@H](C)[C@@H]1O[C@@H]([C@@H](CC)C(=O)O)CC[C@@H]1C)[C@H]1OC2(C=C[C@@H](O)[C@]3(CC[C@@](C)([C@H]4CC[C@](O)(CC)[C@H](C)O4)O3)O2)[C@H](C)C[C@@H]1C (stereo partly drawn)
[reply] 0.905 (active)

[ask] Answer with the recorded normalized growth for the compound listed here: COc1cc(C)c2c(c1C=O)Oc1c(c(C)c(O)c3c1C(O)OC3=O)OC2=O (stereo not drawn)
[reply] 0.986 (inactive)

[ask] Answer with the recorded normalized growth for the compound listed here: COc1c(C2COc3cc4c(cc3C2=O)CC(O)C(C)(C)O4)ccc2c1CCC(C)(C)O2 (stereo not drawn)
[reply] 1.01 (inactive)

Ref: PubChem BioAssay AID1159580
